- System: Vero E6 infected with SARS-CoV-2
- Measurement Protocol: inhibition of SARS-CoV-2 cytopathic effect; higher = more antiviral protection, active = above 15
- Test Conditions: 8.33 nM; 48 h
Assay Endpoint: inhibition of SARS-CoV-2 cytopathic effect (%)
Provide the reading as a plain figure in %.

In the examples that follow, each entry is paired with its recorded inhibition of SARS-CoV-2 cytopathic effect.
Compound	Quantity Unit	Observed Result
CCNC(=O)C[C@@H]1N=C(c2ccc(Cl)cc2)c2cc(OC)ccc2-n2c(C)nnc21	%	-1.13
O=C1NC(c2cccc([N+](=O)[O-])c2)=CCN1c1ccccc1O	%	2.89

Query: Quick check: inhibition of SARS-CoV-2 cytopathic effect of CCOC(=O)NNc1ccc(N(CC)CC(C)O)nn1 (stereo not given) ?
Reply: -0.3

----------
- Tested on: Vero E6 infected with SARS-CoV-2
- Measurement Protocol: inhibition of SARS-CoV-2 cytopathic effect; higher = more antiviral protection, active = above 15
- Test Conditions: 10000 nM; 48 h
Quick list: inhibition of SARS-CoV-2 cytopathic effect per entry.
Entry rule: numbers only, all in %.

Consider the worked cases shown below.
Compound	Observed Result
OC(c1ccc(-c2ccc(CN3CCN(Cc4ccncc4)CC3)cc2)c(F)c1)(C(F)(F)F)C(F)(F)F	-1.46
c1nc(CC2CCNCC2)c[nH]1 [immepip]	0.13
C=C1/C(=C\C=C2/CCC[C@]3(C)[C@@H]([C@H](C)CCCC(O)(C(F)(F)F)C(F)(F)F)CC[C@@H]23)C[C@@H](O)C[C@@H]1O	-2.37

Query: Observed inhibition of SARS-CoV-2 cytopathic effect on Vero E6 infected with SARS-CoV-2 for CCOC(=O)C1=C(C)NC(C)=C(C(=O)OC)C1c1cccc(Cl)c1Cl (centres undefined) , please.
Reply: 1.57

----------
- System: Vero E6 infected with SARS-CoV-2
- Measurement Protocol: inhibition of SARS-CoV-2 cytopathic effect; higher = more antiviral protection, active = above 15
- Test Conditions: 833.33 nM; 48 h
Assay Endpoint: inhibition of SARS-CoV-2 cytopathic effect (%)
Express it in %; write the number only.

Below, 4 compounds whose answers are already recorded.
Compound	Quantity Unit	Observed Result
CCNC(=O)[C@H]1O[C@@H](n2cnc3c(N)nc(NCCc4ccc(CCC(=O)O)cc4)nc32)[C@H](O)[C@@H]1O	%	-1.74
CCc1cc2c(s1)-n1c(C)nnc1CN=C2c1ccccc1Cl [etizolam]	%	3.16
COC(=O)[C@@H](N)CCCNC(=N)N[N+](=O)[O-]	%	-3.06
CC(CN1c2ccccc2Sc2ccccc21)N(C)C (configuration not stated) [promethazine]	%	0.5

Query: Record Cc1ccc(-c2n[nH]c3c2C(c2cccc(O)c2)N(c2ccc(C(=O)O)cc2)C3=O)cc1 (configuration not stated) : what is its inhibition of SARS-CoV-2 cytopathic effect with Vero E6 infected with SARS-CoV-2?
Reply: 3.6

Query: Repeat for the following compound: O=C(OC[C@H]1O[C@@H](OC(=O)c2cc(O)c(O)c(OC(=O)c3cc(O)c(O)c(O)c3)c2)[C@H](OC(=O)c2cc(O)c(O)c(OC(=O)c3cc(O)c(O)c(O)c3)c2)[C@@H](OC(=O)c2cc(O)c(O)c(OC(=O)c3cc(O)c(O)c(O)c3)c2)[C@@H]1OC(=O)c1cc(O)c(O)c(OC(=O)c2cc(O)c(O)c(O)c2)c1)c1cc(O)c(O)c(OC(=O)c2cc(O)c(O)c(O)c2)c1 [tannic-acid]
Reply: -3.86

----------
- System: Vero E6 infected with SARS-CoV-2
- Measurement Protocol: inhibition of SARS-CoV-2 cytopathic effect; higher = more antiviral protection, active = above 15
- Test Conditions: 10000 nM; 48 h
Assay Endpoint: inhibition of SARS-CoV-2 cytopathic effect (%)
Numbers only here, please. The scale is %.

Molecule	Quantity Unit	Observed Result
CCCc1c(OCCCOc2ccc(OCC(=O)O)cc2)ccc(C(C)=O)c1O	%	1.76
COc1cc(N2CCC(N3CCN(C)CC3)CC2)ccc1Nc1ncc(Cl)c(Nc2ccccc2P(C)(C)=O)n1	%	-5.17
COc1ccccc1OC(=O)C(C)c1ccc(CC(C)C)cc1 (centres undefined) [metoxibutropate]	%	-3.16

Query: Which measured inhibition of SARS-CoV-2 cytopathic effect value corresponds to O=C(CCCl)NCCc1ccccc1 ?
Reply: -1.25

Query: Note, next up: CC(C)NC[C@@H](C(=O)N1CCN(c2ncnc3c2[C@H](C)C[C@H]3O)CC1)c1ccc(Cl)cc1
Reply: 1.98

Query: Similarly, c1cc2c(cc1C1CCCCC1)c1c3n2CCNC3CCC1 (centres undefined) ?
Reply: 20.8

Query: Also O=C(Nc1ccc(Cl)nc1)c1ccc(Cl)cc1 , if possible.
Reply: 0.84

Query: Queued: CC(=O)OCC(=O)[C@@]1(O)CC[C@H]2[C@@H]3CCC4=CC(=O)C=C[C@]4(C)[C@@]3(F)[C@@H](O)C[C@@]21C [isoflupredone-acetate]
Reply: 1.02

Query: Now give it for C=C(C)[C@@H]1CC=C(CO)CC1 too.
Reply: -1.2

----------
Listed here: items and their measured SARS-CoV-2 infection rate.
- System: Vero E6 infected with SARS-CoV-2
- Measurement Protocol: SARS-CoV-2 infection rate relative to infected DMSO; higher = more infection, active = 60 or less
- Test Conditions: 24 h

Study these solved cases before continuing.
Compound	Study System	SARS-CoV-2 infection rate
COc1ccc(-c2oc3c(CC=C(C)C)c(O[C@@H]4O[C@H](CO)[C@@H](O)[C@H](O)[C@H]4O)cc(O)c3c(=O)c2O[C@@H]2O[C@@H](C)[C@H](O)[C@@H](O)[C@H]2O)cc1 [icariin] (10 µM)	Vero E6 infected with SARS-CoV-2	106% (inactive)
O=C(O)CSCC(=O)NC1CCSC1=O (centres undefined) [erdosteine] (10 µM)	Vero E6 infected with SARS-CoV-2	104% (inactive)
O=C(O)C1CN(Cc2ccc(-c3nc4cc(Cc5ccccc5F)ccc4s3)c(F)c2)C1 (10 µM)	Vero E6 infected with SARS-CoV-2	113% (inactive)

API: the following record is the query input.
Query: Please look up its SARS-CoV-2 infection rate: CCCC[C@H]1OC(=O)c2ccccc21 [butylphthalide] (10 µM)
Reply: 102% (inactive)

----------
# morphology score per record follows
- Test system: Vero E6 infected with SARS-CoV-2
- Measurement Protocol: morphology score (similarity to uninfected cells); higher = more like uninfected cells
- Test Conditions: 24 h
Just the number, please.

Compound	morphology score
CCN(CC)CCNC(=O)c1cc(Cl)c(N)cc1OC [metoclopramide] (10 µM)	-0.00451

Query: Query (compound): O=C(COc1ccc(Cl)cc1)N[C@H]1CC[C@H](NC(=O)COc2ccc(Cl)cc2)CC1 (10 µM) ; field requested: morphology score
Reply: -0.175

Query: Another compound: Cc1ccc(C(=O)N(CCCN)[C@@H](c2nc3cc(Cl)ccc3c(=O)n2Cc2ccccc2)C(C)C)cc1 [ispinesib] (0.833333 µM)
Reply: -0.37

Query: What do we get for N=C(N)NCc1cccc(I)c1 [iobenguane] (10 µM) ?
Reply: 0.132

Query: Repeat with Cn1cc(C(=O)C(=O)N[C@H]2CN3CCC2CC3)c2ccccc21 (10 µM)
Reply: 0.181

Query: Same lookup for Clc1ccc(C(c2ccc(Cl)cc2)C(Cl)(Cl)Cl)cc1 (10 µM) , please.
Reply: 0.0848

----------
- Test system: Vero E6 infected with SARS-CoV-2
- Measurement Protocol: inhibition of SARS-CoV-2 cytopathic effect; higher = more antiviral protection, active = above 15
- Test Conditions: 10000 nM; 48 h
Assay Endpoint: inhibition of SARS-CoV-2 cytopathic effect (%)
Hi! Could you send only the number? It should be in %, unit omitted.

Compound	Observed Result
CC1=C(C(=O)O)N2C(=O)[C@@H](NC(=O)[C@H](N)c3ccc(O)cc3)[C@H]2SC1 [cefadroxil]	-1.18
CCOc1ccc2nc(SCCN3CCOCC3)[nH]c2c1 [afobazole]	1.56
CC(=O)N(CC(O)CO)c1c(I)c(C(=O)NCC(O)CO)c(I)c(C(=O)NCC(O)CO)c1I (centres undefined) [iohexol]	2.67

Query: Entry C[C@@]1(O)[C@H](O)[C@@H](CO)O[C@H]1n1cnc2c(NC3CCCC3)nc(Cl)nc21 : reported inhibition of SARS-CoV-2 cytopathic effect = ?
Reply: -0.13

Query: What do you get for O=C(O)C(Cl)Cl [dichloroacetate] ?
Reply: 2.63

Query: // next record COC(=O)C1=C(C)NC(C)=C(C(=O)OC(C)C)[C@@H]1c1cccc2nonc12 [isradipine]
Reply: 1.88

Query: What about CC1(C)CCC(C)(C)c2c1cc(C(=O)Nc1cc(F)c(C(=O)O)c(F)c1)c(O)c2Cl ?
Reply: 3.26

Query: Item: CC(C)[C@@H](C(=O)Nc1nccs1)c1ccc(Cl)cc1
Reply: 1.55

Query: Here is the next compound: Cn1cc(-c2ccncc2)c(-c2ccc(OCc3ccc4ccccc4n3)cc2)n1
Reply: 52.4

Query: Proceed to CCN1C(=O)NC(c2ccccc2)C1=O (centres undefined) [ethotoin]
Reply: -0.15

Query: Another compound: C[C@@H]1CCCN1CCc1cc2cc(-c3ccc(C#N)cc3)ccc2o1
Reply: 4.34

Query: Item: CN1[C@@H]2CC[C@H]1C[C@@H](OC1c3ccccc3CCc3ccccc31)C2 [deptropine]
Reply: 12.7

Query: COc1nc(N)nc2c1ncn2[C@@H]1O[C@H](CO)[C@@H](O)[C@@H]1O [nelarabine] ?
Reply: 1.12

Query: Then what about the compound CN1Cc2c(C(=O)OC(C)(C)C)ncn2-c2ccsc2C1=O ?
Reply: -0.64

Source listed as the supplement of paper PMC13380429.
